Listed next: entries and their corresponding Purity (%).
Assay Procedure: Stability determination (thermal stability and photostability, HPLC purity, appearance, XRPD)
Format: physicochemical
Study Conditions: Initial, 0 days
Structures can show the parent of a compound that is named as a salt.
Measurement Label: Purity (%)

Molecule	Experimental Result
Cc1c(NC(=O)c2cc(C3CC3)c(CN3CCCC[C@H]3C(=O)O)cn2)cccc1-c1cccc(NC(=O)c2cc(C3CC3)c(CN3CCCC[C@H]3C(=O)O)cn2)c1C [crystalline form A of disodium salt hydrate]	99.38
Cc1c(NC(=O)c2cc(C3CC3)c(CN3CCCC[C@H]3C(=O)O)cn2)cccc1-c1cccc(NC(=O)c2cc(C3CC3)c(CN3CCCC[C@H]3C(=O)O)cn2)c1C [free-form crystalline form D]	98.17
Cc1c(NC(=O)c2cc(C3CC3)c(CN3CCCC[C@H]3C(=O)O)cn2)cccc1-c1cccc(NC(=O)c2cc(C3CC3)c(CN3CCCC[C@H]3C(=O)O)cn2)c1C [crystalline form B of disodium salt anhydrate]	91.23
Cc1c(NC(=O)c2cc(C3CC3)c(CN3CCCC[C@H]3C(=O)O)cn2)cccc1-c1cccc(NC(=O)c2cc(C3CC3)c(CN3CCCC[C@H]3C(=O)O)cn2)c1C [free-form crystalline form C]	98.42
Cc1c(NC(=O)c2cc(C3CC3)c(CN3CCCC[C@H]3C(=O)O)cn2)cccc1-c1cccc(NC(=O)c2cc(C3CC3)c(CN3CCCC[C@H]3C(=O)O)cn2)c1C [free-form crystalline form F]	99.44

* * *

Assay Procedure: Solubility determination (equilibrium solubility, 24 hrs stirring at room temperature, HPLC)
Assay type: physicochemical
Study Conditions: pH 6.8, 50 mM phosphoric acid buffer; target concentration 2000 µg/mL; 24 hrs
Where a name gives a salt, the structure may show the parent alone.
Listed next: entries and their corresponding Equilibrium solubility.

Compound	Reading Unit	Equilibrium solubility
Cc1c(NC(=O)c2cc(C3CC3)c(CN3CCCC[C@H]3C(=O)O)cn2)cccc1-c1cccc(NC(=O)c2cc(C3CC3)c(CN3CCCC[C@H]3C(=O)O)cn2)c1C [crystalline form A of disodium salt hydrate]	µg/mL	34
Cc1c(NC(=O)c2cc(C3CC3)c(CN3CCCC[C@H]3C(=O)O)cn2)cccc1-c1cccc(NC(=O)c2cc(C3CC3)c(CN3CCCC[C@H]3C(=O)O)cn2)c1C [free-form crystalline form F]	µg/mL	61.01
Cc1c(NC(=O)c2cc(C3CC3)c(CN3CCCC[C@H]3C(=O)O)cn2)cccc1-c1cccc(NC(=O)c2cc(C3CC3)c(CN3CCCC[C@H]3C(=O)O)cn2)c1C [free-form crystalline form D]	µg/mL	42.11
Cc1c(NC(=O)c2cc(C3CC3)c(CN3CCCC[C@H]3C(=O)O)cn2)cccc1-c1cccc(NC(=O)c2cc(C3CC3)c(CN3CCCC[C@H]3C(=O)O)cn2)c1C [free-form crystalline form C]	µg/mL	2.31
Cc1c(NC(=O)c2cc(C3CC3)c(CN3CCCC[C@H]3C(=O)O)cn2)cccc1-c1cccc(NC(=O)c2cc(C3CC3)c(CN3CCCC[C@H]3C(=O)O)cn2)c1C [crystalline form B of disodium salt anhydrate]	µg/mL	194

* * *

Listed next: entries and their corresponding Hygroscopic weight increase (%).
Assay Procedure: Hygroscopic behavior test by dynamic vapor sorption (DVS)
Type: physicochemical
Study Conditions: Relative humidity 20.0 % at 25 °C
Structures can show the parent of a compound that is named as a salt.

Molecule	Hygroscopic weight increase (%)
Cc1c(NC(=O)c2cc(C3CC3)c(CN3CCCC[C@H]3C(=O)O)cn2)cccc1-c1cccc(NC(=O)c2cc(C3CC3)c(CN3CCCC[C@H]3C(=O)O)cn2)c1C [free-form crystalline form D]	0.85
Cc1c(NC(=O)c2cc(C3CC3)c(CN3CCCC[C@H]3C(=O)O)cn2)cccc1-c1cccc(NC(=O)c2cc(C3CC3)c(CN3CCCC[C@H]3C(=O)O)cn2)c1C [free-form crystalline form F]	0.38
Cc1c(NC(=O)c2cc(C3CC3)c(CN3CCCC[C@H]3C(=O)O)cn2)cccc1-c1cccc(NC(=O)c2cc(C3CC3)c(CN3CCCC[C@H]3C(=O)O)cn2)c1C [free-form crystalline form C]	0.75
Cc1c(NC(=O)c2cc(C3CC3)c(CN3CCCC[C@H]3C(=O)O)cn2)cccc1-c1cccc(NC(=O)c2cc(C3CC3)c(CN3CCCC[C@H]3C(=O)O)cn2)c1C [crystalline form A of disodium salt hydrate]	7.45

* * *

Assay Procedure: Stability determination (thermal stability and photostability, HPLC purity, appearance, XRPD)
Assay type: physicochemical
Study Conditions: 80 °C, 7 days
Counter-ions that a name gives are not always drawn.

Compound	Reading Unit	Purity (%)
Cc1c(NC(=O)c2cc(C3CC3)c(CN3CCCC[C@H]3C(=O)O)cn2)cccc1-c1cccc(NC(=O)c2cc(C3CC3)c(CN3CCCC[C@H]3C(=O)O)cn2)c1C [free-form crystalline form D]	%	97.22
Cc1c(NC(=O)c2cc(C3CC3)c(CN3CCCC[C@H]3C(=O)O)cn2)cccc1-c1cccc(NC(=O)c2cc(C3CC3)c(CN3CCCC[C@H]3C(=O)O)cn2)c1C [crystalline form B of disodium salt anhydrate]	%	90.77
Cc1c(NC(=O)c2cc(C3CC3)c(CN3CCCC[C@H]3C(=O)O)cn2)cccc1-c1cccc(NC(=O)c2cc(C3CC3)c(CN3CCCC[C@H]3C(=O)O)cn2)c1C [free-form crystalline form C]	%	97.90
Cc1c(NC(=O)c2cc(C3CC3)c(CN3CCCC[C@H]3C(=O)O)cn2)cccc1-c1cccc(NC(=O)c2cc(C3CC3)c(CN3CCCC[C@H]3C(=O)O)cn2)c1C [crystalline form A of disodium salt hydrate]	%	99.34

* * *

Listed next: entries and their corresponding Purity (%).
Assay Procedure: Stability determination (thermal stability and photostability, HPLC purity, appearance, XRPD)
Assay type: physicochemical
Study Conditions: 50 °C/75%RH, 7 days
Counter-ions that a name gives are not always drawn.
Measurement Label: Purity (%)

Molecule	Measurement Label	Reading Unit	Experimental Result
Cc1c(NC(=O)c2cc(C3CC3)c(CN3CCCC[C@H]3C(=O)O)cn2)cccc1-c1cccc(NC(=O)c2cc(C3CC3)c(CN3CCCC[C@H]3C(=O)O)cn2)c1C [crystalline form A of disodium salt hydrate]	Purity (%)	%	99.46
Cc1c(NC(=O)c2cc(C3CC3)c(CN3CCCC[C@H]3C(=O)O)cn2)cccc1-c1cccc(NC(=O)c2cc(C3CC3)c(CN3CCCC[C@H]3C(=O)O)cn2)c1C [free-form crystalline form D]	Purity (%)	%	98.24
Cc1c(NC(=O)c2cc(C3CC3)c(CN3CCCC[C@H]3C(=O)O)cn2)cccc1-c1cccc(NC(=O)c2cc(C3CC3)c(CN3CCCC[C@H]3C(=O)O)cn2)c1C [free-form crystalline form C]	Purity (%)	%	98.43
Cc1c(NC(=O)c2cc(C3CC3)c(CN3CCCC[C@H]3C(=O)O)cn2)cccc1-c1cccc(NC(=O)c2cc(C3CC3)c(CN3CCCC[C@H]3C(=O)O)cn2)c1C [crystalline form B of disodium salt anhydrate]	Purity (%)	%	92.97

* * *

Listed next: entries and their corresponding pH24 hrs.
Assay Procedure: Solubility determination (equilibrium solubility, 24 hrs stirring at room temperature, HPLC)
Format: physicochemical
Study Conditions: pH of the filtrate after 24 hrs; FaSSGF
Experimental: The stability and solubility of the crystalline free form of the compound of formula (I) or the basic salt thereof of the present application were determined by HPLC. The desired amount of the compound was weighed into a glass vial, and the desired amount of a vehicle was added. A stir bar was added to the vial, and the mixture was stirred at room temperature for 24 hrs. […] The pH value of the filtrate was determined, and the sample was diluted with MeOH. […]
Structures can show the parent of a compound that is named as a salt.

Compound	pH24 hrs
Cc1c(NC(=O)c2cc(C3CC3)c(CN3CCCC[C@H]3C(=O)O)cn2)cccc1-c1cccc(NC(=O)c2cc(C3CC3)c(CN3CCCC[C@H]3C(=O)O)cn2)c1C [crystalline form B of disodium salt anhydrate]	1.72
Cc1c(NC(=O)c2cc(C3CC3)c(CN3CCCC[C@H]3C(=O)O)cn2)cccc1-c1cccc(NC(=O)c2cc(C3CC3)c(CN3CCCC[C@H]3C(=O)O)cn2)c1C [free-form crystalline form C]	1.56
Cc1c(NC(=O)c2cc(C3CC3)c(CN3CCCC[C@H]3C(=O)O)cn2)cccc1-c1cccc(NC(=O)c2cc(C3CC3)c(CN3CCCC[C@H]3C(=O)O)cn2)c1C [free-form crystalline form F]	1.58
Cc1c(NC(=O)c2cc(C3CC3)c(CN3CCCC[C@H]3C(=O)O)cn2)cccc1-c1cccc(NC(=O)c2cc(C3CC3)c(CN3CCCC[C@H]3C(=O)O)cn2)c1C [crystalline form A of disodium salt hydrate]	1.73
Cc1c(NC(=O)c2cc(C3CC3)c(CN3CCCC[C@H]3C(=O)O)cn2)cccc1-c1cccc(NC(=O)c2cc(C3CC3)c(CN3CCCC[C@H]3C(=O)O)cn2)c1C [free-form crystalline form D]	1.57

// provenance: patent EP4806890A1
